experiment: Krafft point of anionic surfactants; type: physicochemical
Structures can show the parent of a compound that is named as a salt.
The compounds listed here are annotated with their Krafft point.
The response must be a number in °C with no trailing unit.

See these solved cases before continuing.
• CCCCCCCCCCCCCCCC(=O)NCCOS(=O)(=O)O = 42
• CCCCCCCCCCCCc1ccc(S(=O)(=O)O)cc1 [sodium dodecylbenzenesulfonate] = 40
• CCCCCCCCCCCCCCc1ccc(S(=O)(=O)O)cc1 [sodium tetradecylbenzenesulfonate] = 43
• CCCCCCCCCCCCCCCCCC(=O)NCCOS(=O)(=O)O = 53
• CCCCCCCCCCCCCCCCS(=O)(=O)[O-].[Na+] [sodium hexadecanesulfonate] = 57

For the compound CCCCCCCCCCCCCCCCCCOCCOCCOS(=O)(=O)O [sodium octadecyl diether sulfate ester] , give its measured Krafft point value.
40

For the compound CCCCCCCCCCCCS(=O)(=O)[O-].[Na+] [sodium dodecanesulfonate] , give its measured Krafft point value.
38

For the compound CCCCCCCCCCCCCCCCc1ccc(S(=O)(=O)O)cc1 [sodium hexadecylbenzenesulfonate] , give its measured Krafft point value.
46

For the compound CCCCCCCCCCCCCCCC(=O)NCCS(=O)(=O)O.[Na] [sodium palmitoyltaurine] , give its measured Krafft point value.
43

For the compound CCCCCCCCCCCCCCCCCCOCCOS(=O)(=O)O [sodium octadecylether sulfate ester] , give its measured Krafft point value.
46

For the compound CCCCCCCCCCCCOS(=O)(=O)[O-].[Na+] [sodium dodecyl sulfate, reference compound] , give its measured Krafft point value.
9

For the compound CCCCCCCCCCCCCCCCCCc1ccc(S(=O)(=O)O)cc1 [sodium octadecylbenzenesulfonate] , give its measured Krafft point value.
56

For the compound CCCCCCCCCCCCCCCCCC(=O)NCCS(=O)(=O)O.[Na] [sodium stearoyltaurine] , give its measured Krafft point value.
58

For the compound CCCCCCCCCCCCCCCCCCOS(=O)(=O)[O-].[Na+] [sodium octadecyl sulfate] , give its measured Krafft point value.
58

For the compound CCCCCCCCCCCCCCCCCCS(=O)(=O)[O-].[Na+] [sodium octadecanesulfonate] , give its measured Krafft point value.
70

For the compound CCCCCCCCCCCCCCCS(=O)(=O)[O-].[Na+] [sodium pentadecanesulfonate] , give its measured Krafft point value.
48

For the compound CCCCCCCCCCCCCCCC(=O)N(C)CCS(=O)(=O)O.[Na] [sodium palmitoylmethyltaurine] , give its measured Krafft point value.
43
